Source listed as PubChem BioAssay AID1159580.

Assay: chemical genetic growth profiling, strain panel (AID 1159580);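 note: tested at 20 µM; growth read once vehicle control cultures reached saturation at 30 °C; 1 = growth at the plate median or of vehicle wells; lower values mean less growth of the strain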
Conditions: S. cerevisiae deletion strains, growth OD, locus YJR066W, strain TOR1, active compounds read low
Hit rate of the full screen: of about 5,500 compounds, about 2,000 (36%) were called active. Another 18% or so got no clear call; they are omitted. Some of the results follow.
# Yes = normalized growth below 0.9 (exclusive); No = normalized growth at/above 0.9

Input COc1ccc(C2CC(=O)c3ccc(OC)cc3O2)cc1 (stereo unspecified) ; condition: normalized growth strictly below 0.9. Does it hold? Yes

Input NC(=O)N1c2ccccc2CC(=O)c2ccccc21 ; condition: normalized growth strictly below 0.9. Does it hold? No

Input O=C1C[C@@H](c2ccc(O)cc2)Oc2cc(O)cc(O)c21 ; condition: normalized growth strictly below 0.9. Does it hold? No

Input COc1cc(OC)c2c(c1)OC(c1ccccc1)CC2=O (stereo unspecified) ; condition: normalized growth strictly below 0.9. Does it hold? No

Input CC(C(=O)O)c1ccc2c(c1)[nH]c1ccc(Cl)cc12 (stereo unspecified) ; condition: normalized growth strictly below 0.9. Does it hold? Yes

Input O=C(NCc1ccco1)c1ccc(Oc2cc(Cl)cc(Cl)c2)o1 ; condition: normalized growth strictly below 0.9. Does it hold? No

---

Assay: chemical genetic growth profiling, strain panel (AID 1159580);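 note: tested at 20 µM; growth read once vehicle control cultures reached saturation at 30 °C; 1 = growth at the plate median or of vehicle wells; lower values mean less growth of the strain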
Conditions: S. cerevisiae deletion strains, growth OD, locus YJL115W, strain asf1, active compounds read low
In all, about 5,500 compounds went through this assay and about 2,000 (36%) were called active. Another 18% or so got no clear call; they are omitted. The list shows a part of the results.
For each record, write down the corresponding normalized growth.
// return just the number, without any unit appended

Dear colleague, please send me the reported normalized growth for O=c1ccc2ccccc2o1 when you can. 0.972

Dear colleague, please send me the reported normalized growth for O=C(Cc1ccccc1)NO when you can. 0.961

Dear colleague, please send me the reported normalized growth for Cc1cc(=O)c2c(O)cc(O)c(C)c2o1 when you can. 0.971

Dear colleague, please send me the reported normalized growth for CCCCCCCC/C=C/CCCCCCCCOP(=O)([O-])OCC[N+](C)(C)C when you can. 0.0664

Dear colleague, please send me the reported normalized growth for O=C(/C=C/C=C/c1ccc2c(c1)OCO2)N1CCCCC1 when you can. 0.984

Dear colleague, please send me the reported normalized growth for O=C(/C=C/c1ccccc1)O[C@H]1C[C@@H](O)[C@]2(O)C=CO[C@@H](O[C@@H]3O[C@H](CO)[C@@H](O)[C@H](O)[C@H]3O)[C@H]12 when you can. 1.03

Dear colleague, please send me the reported normalized growth for NC(N)=NOCC[C@H](N)C(=O)O when you can. 1.01

Dear colleague, please send me the reported normalized growth for CC(C)[N+](C)(CCOC(=O)C1c2ccccc2Oc2ccccc21)C(C)C when you can. 1

Dear colleague, please send me the reported normalized growth for C[N+](C)(C)CCOP(=O)([O-])OP(=O)(O)OC[C@H]1OC(n2ccc(N)nc2=O)[C@H](O)[C@@H]1O (stereo partly specified) when you can. 0.977

Dear colleague, please send me the reported normalized growth for COc1cc(O)c2c(=O)cc(C)oc2c1CC=C(C)C when you can. 1.02

Dear colleague, please send me the reported normalized growth for COc1c(O)cc2oc3cc(O)c(CC=C(C)C)c(O)c3c(=O)c2c1CC=C(C)C when you can. 1.03

---

For each record, write down the corresponding normalized growth.
Experiment: chemical genetic growth profiling, strain panel (AID 1159580);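 note: tested at 20 µM; growth read once vehicle control cultures reached saturation at 30 °C; 1 = growth at the plate median or of vehicle wells; lower values mean less growth of the strain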
Details: S. cerevisiae deletion strains, growth OD, locus YCL069W, strain vba3, active compounds read low
Among all 5,500 compounds or so, about 2,000 (36%) were called active. Another 18% or so got no clear call; they are omitted. The list shows a part of the results.
// return just the number, without any unit appended

Dear colleague, please send me the reported normalized growth for COc1ccc(C2CC(=O)c3ccc(OC)cc3O2)cc1 (stereo unspecified) when you can. 0.961

Dear colleague, please send me the reported normalized growth for O=[N+]([O-])O[C@H]1CO[C@H]2[C@@H]1OC[C@H]2O[N+](=O)[O-] when you can. 0.999

Dear colleague, please send me the reported normalized growth for NC(N)=NOCC[C@H](N)C(=O)O when you can. 1.01

Dear colleague, please send me the reported normalized growth for C=CCc1ccc2c(c1)OCO2 when you can. 1.01

Dear colleague, please send me the reported normalized growth for C=CC1=C(C(=O)O)N2C(=O)[C@@H](NC(=O)/C(=N/O)c3csc(N)n3)[C@H]2SC1 when you can. 1.02

Dear colleague, please send me the reported normalized growth for CCC1(C)CC(=O)NC1=O (stereo unspecified) when you can. 0.977

Dear colleague, please send me the reported normalized growth for CC(=O)CC(=O)CCC(=O)O when you can. 1.02

Dear colleague, please send me the reported normalized growth for CC1(C)C2CC[C@]3(C)C(C(=O)C=C4[C@@H]5C[C@@](C)(C(=O)O)CC[C@]5(C)CC[C@]43C)[C@@]2(C)CC[C@@H]1OC(=O)CCC(=O)O (stereo partly specified) when you can. 1.02

Dear colleague, please send me the reported normalized growth for COc1cc(O)c(C(=O)c2ccccc2)cc1O when you can. 0.996

Dear colleague, please send me the reported normalized growth for CO[C@H]1C[C@H](O[C@H]2[C@H](C)[C@@H](OC3O[C@H](C)C[C@H](N(C)C)[C@H]3O)[C@@H](C)C[C@]3(CO3)C(=O)[C@H](C)[C@@H](O)[C@@H](C)[C@@H](C)OC(=O)[C@@H]2C)O[C@@H](C)[C@@H]1O (stereo partly specified) when you can. 1

Dear colleague, please send me the reported normalized growth for CCC1(c2ccc(N)cc2)CCC(=O)NC1=O (stereo unspecified) when you can. 0.956

Dear colleague, please send me the reported normalized growth for CC1(C)C2CC[C@]3(C)C(C(=O)C=C4[C@H]5C[C@@](C)(C(=O)O)CC[C@]5(C)CC[C@]43C)[C@@]2(C)CC[C@@H]1O (stereo partly specified) when you can. 0.955

Dear colleague, please send me the reported normalized growth for COc1ccc(-c2cc(=O)c3c(O)cc(OC)c(OC)c3o2)c(OC)c1 when you can. 1.04

Dear colleague, please send me the reported normalized growth for C1CCc2nnnn2CC1 when you can. 1

Dear colleague, please send me the reported normalized growth for N=c1nc(N2CCCCC2)cc(N)n1O when you can. 0.992

Dear colleague, please send me the reported normalized growth for C[C@@H]1O[C@@H](O[C@H]2[C@@H](Oc3cc(O)c4c(c3)O[C@H](c3ccc(O)cc3)CC4=O)O[C@H](CO)[C@@H](O)[C@@H]2O)[C@H](O)[C@H](O)[C@H]1O when you can. 0.97

Dear colleague, please send me the reported normalized growth for OCC(O)Cc1ccc2c(c1)OCO2 (stereo unspecified) when you can. 0.981

Dear colleague, please send me the reported normalized growth for COc1ccc([C@@H]2CC(=O)c3c(O)cc(O)cc3O2)cc1O when you can. 0.99

Dear colleague, please send me the reported normalized growth for CCN(CC)C(=S)SSC(=S)N(CC)CC when you can. 0.0629

Dear colleague, please send me the reported normalized growth for O=C1CC(c2ccc(O)c(O)c2)Oc2cc(O)cc(O)c21 (stereo unspecified) when you can. 1.01

Dear colleague, please send me the reported normalized growth for COc1ccc(C(=O)c2ccccc2O)c(O)c1 when you can. 0.869

---

Assay: chemical genetic growth profiling, strain panel (AID 1159580);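 note: tested at 20 µM; growth read once vehicle control cultures reached saturation at 30 °C; 1 = growth at the plate median or of vehicle wells; lower values mean less growth of the strain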
Conditions: S. cerevisiae deletion strains, growth OD, locus YKL190W, strain CNB1, active compounds read low
Hit rate of the full screen: of about 5,500 compounds, about 2,000 (36%) were called active. About 18% were inconclusive and are not listed. The list shows a part of the results.
For each record, write down the corresponding normalized growth.
// return just the number, without any unit appended

Dear colleague, please send me the reported normalized growth for COc1c2c(c(CC=C(C)C)c3oc(=O)c(-c4ccc(O)cc4)c(O)c13)OC(C)(C)C=C2 when you can. 0.851

Dear colleague, please send me the reported normalized growth for COc1ccc(-c2coc3c(O)c(OC)ccc3c2=O)cc1 when you can. 0.932

Dear colleague, please send me the reported normalized growth for NC(=O)N1c2ccccc2CC(=O)c2ccccc21 when you can. 1

Dear colleague, please send me the reported normalized growth for Cc1c(N(C)C)c(=O)n(-c2ccccc2)n1C when you can. 0.988

Dear colleague, please send me the reported normalized growth for NC(=O)c1ncn([C@@H]2O[C@H](CO)[C@@H](O)[C@H]2O)c1O when you can. 1.01

Dear colleague, please send me the reported normalized growth for CCCCOc1ccc(OCCCN2CCOCC2)cc1 when you can. 0.871

Dear colleague, please send me the reported normalized growth for NC[C@@H]1O[C@H](O[C@@H]2[C@@H](CO)OC(O[C@@H]3[C@@H](O)[C@H](N)C[C@H](N)[C@H]3OC3O[C@H](CN)[C@@H](O)[C@H](O)[C@H]3N)[C@@H]2O)[C@H](N)[C@@H](O)[C@@H]1O (some centres not stated) when you can. 1

Dear colleague, please send me the reported normalized growth for OCCN(CCO)c1nc(N2CCCCC2)c2nc(N(CCO)CCO)nc(N3CCCCC3)c2n1 when you can. 1.01

Dear colleague, please send me the reported normalized growth for CC1(O)/C=C/C=C(\CO)C2CC(C)(C)C2(O)CC1 (configuration not stated) when you can. 1.01

Dear colleague, please send me the reported normalized growth for CCC1(c2ccccc2)C(=O)NCNC1=O when you can. 1.01

Dear colleague, please send me the reported normalized growth for Cc1c(O)cc(O)c2c(=O)c(-c3ccc(O)cc3)coc12 when you can. 0.986

Dear colleague, please send me the reported normalized growth for CC1(C)/C(=N/OC(=O)c2cccc(C(F)(F)F)c2)[C@]2(C)CCC1C2 when you can. 1.01

Dear colleague, please send me the reported normalized growth for CC(=O)O[C@]1(C(C)=O)CCC2C3C[C@H](C)C4=CC(=O)CC[C@]4(C)C3CC[C@@]21C (some centres not stated) when you can. 0.989

Dear colleague, please send me the reported normalized growth for OCc1ccccc1O[C@@H]1O[C@H](CO)[C@@H](O)[C@H](O)[C@H]1O when you can. 0.988

Dear colleague, please send me the reported normalized growth for Cc1ccc(Oc2ccc(C)cc2)cc1 when you can. 1

Dear colleague, please send me the reported normalized growth for CCCCOc1ccc(C(=O)CCC(=O)O)cc1 when you can. 1.02

Dear colleague, please send me the reported normalized growth for COc1ccccc1CC(=O)NC1CCN(Cc2ccccc2)CC1 when you can. 1.01

Dear colleague, please send me the reported normalized growth for COc1ccc(-c2c(O)c3cc4c(c(CC=C(C)C)c3oc2=O)OC(C)(C)CC4)cc1 when you can. 1

Dear colleague, please send me the reported normalized growth for Cc1c(C(=O)O)cc(-c2ccccc2)n1-c1ccccc1 when you can. 0.975

Dear colleague, please send me the reported normalized growth for CC(C)(C)NC(=O)N1CCN(c2nc3ccc(Cl)cc3s2)CC1 when you can. 0.993

Dear colleague, please send me the reported normalized growth for Cc1cc(=O)c2c(O)cc(O)c(C)c2o1 when you can. 0.993

Dear colleague, please send me the reported normalized growth for NC/C=C/C(=O)O when you can. 1.02
